biological target: full-length SARM1 (FL-SARM1) (Homo sapiens); test: FL-SARM1 cellular lysate assay (NAD/NADH-Glo detection of remaining NAD+, NMN-activated); conditions: Activity (μM) (IC50), 11 point curve
Sequence (Q6SZW1 28-724): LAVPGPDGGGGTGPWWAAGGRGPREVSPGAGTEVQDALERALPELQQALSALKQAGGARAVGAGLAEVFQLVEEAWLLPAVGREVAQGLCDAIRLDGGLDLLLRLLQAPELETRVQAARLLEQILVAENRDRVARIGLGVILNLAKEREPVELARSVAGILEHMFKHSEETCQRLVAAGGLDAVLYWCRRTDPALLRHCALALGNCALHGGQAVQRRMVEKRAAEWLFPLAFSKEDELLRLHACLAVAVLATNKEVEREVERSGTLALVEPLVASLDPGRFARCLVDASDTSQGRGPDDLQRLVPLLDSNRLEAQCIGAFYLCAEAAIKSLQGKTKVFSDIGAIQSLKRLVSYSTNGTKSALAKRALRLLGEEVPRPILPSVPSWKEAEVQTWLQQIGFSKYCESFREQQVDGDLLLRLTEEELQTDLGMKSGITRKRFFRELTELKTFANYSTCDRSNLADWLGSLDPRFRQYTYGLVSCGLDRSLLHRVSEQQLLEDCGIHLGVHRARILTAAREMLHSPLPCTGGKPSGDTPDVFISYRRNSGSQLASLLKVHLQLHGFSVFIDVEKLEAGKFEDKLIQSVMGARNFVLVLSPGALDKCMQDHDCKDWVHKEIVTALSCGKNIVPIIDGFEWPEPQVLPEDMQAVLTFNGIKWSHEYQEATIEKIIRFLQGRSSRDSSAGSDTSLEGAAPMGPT
parameter: IC50 (µM)
Give a bare numeral; the unit µM is implied.

Query block: Would you kindly share the measured IC50 for `O=C(Nc1ccc(C(F)(F)F)c(-c2ncc(F)cn2)c1)N1C2CC3CC(C2)CC1C3` ?
Result block: 0.7

Query block: # input compound: `Cc1ccc(NC(=O)N2C3CCCC2C3)cc1-c1ncc(F)cn1` ; wanted: its IC50
Result block: 0.2

Query block: Give the measured IC50 of Cc1ccc(NC(=O)C2C3CCC2(c2ccn(C)n2)C3)cc1-c1ncc(F)cn1 (mixture of isomers) .
Result block: 1

Query block: Which IC50 is listed for `Cc1ccc(NC(=O)[C@H]2C[C@H]3C[C@H]3N2Cc2ncccn2)cc1-c1ncc(F)cn1` ?
Result block: 34

Query block: Given the compound Cc1ccc(NC(=O)N2[C@@H]3CC(C)C[C@H]2C3)cc1-c1ncccc1C (mixture of isomers) , what is its reported IC50?
Result block: 0.8

Query block: # input compound: `Cc1ccc(NC(=O)N2C3CCCC2C3)cc1-c1cccc(C#N)n1` ; wanted: its IC50
Result block: 0.1

Query block: Given Cc1ccc(NC(=O)N2CCCC3CC32)cc1-c1ccccn1 (stereo not shown) , state its recorded IC50.
Result block: 18

Query block: What value of measured IC50 is listed for `Cc1ccc(NC(=O)[C@H]2[C@@H]3CC(F)(F)C[C@@H]32)cc1-c1cccnn1` ?
Result block: 26

Query block: Please look up its IC50: Cc1ccc(NC(=O)N2C3CC2CN(C(C)C(F)(F)F)C3)cc1-c1ccccn1 (stereo not shown)
Result block: 0.7

Query block: Entry Cc1ccc(NC(=O)N2C3C[C@@H]2CC[C@H]3C)cc1-c1ccccn1 (single isomer, unassigned) [Example 48] : reported IC50 = ?
Result block: 0.1

Query block: Requested read-out: IC50. Entry: `Cc1ccc(NC(=O)N2C3CCCC2C3)cc1-c1ccc(C(F)(F)F)nn1`
Result block: 11

Query block: Record request: IC50 value, item Cc1ccc(NC(=O)C2C[C@H]3C[C@@H]23)cc1-c1ccccn1 (stereo partly shown)
Result block: 4.6

Query block: Which measured IC50 value corresponds to COC(C)[C@@]12CC(C[C@@H](C)C1)N2C(=O)Nc1ccc(C)c(-c2ncc(F)cn2)c1 (single isomer, unassigned) [Example 192] ?
Result block: 1

Query block: What does the record list as IC50 for Cc1ccc(NC(=O)[C@H]2[C@H](C)C2(F)F)cc1-c1ccccn1 (racemic) ?
Result block: 3.3

Query block: What value of measured IC50 is listed for `Cc1c(Cl)cc(NC(=O)N2C3CCCC2C3)cc1-c1ccccn1` ?
Result block: 0.8

Query block: Which IC50 reading was recorded for the compound Cc1ccc(NC(=O)C2COC(C)(C)CN2c2ncccn2)cc1-c1ncccn1 (single isomer, unassigned) [Example 208] ?
Result block: 3.3

====

Please go through the items and note down their pIC50.
biological target: full-length SARM1 (FL-SARM1) (Homo sapiens); assay: FL-SARM1 cellular lysate assay (NAD/NADH-Glo detection of remaining NAD+, NMN-activated); conditions: Activity (IC50 class), 11 point curve
pIC50: −log10 of the molar value.

Query block: Look up pIC50: `CCO[C@@H]1CC2C[C@H](C1)N2C(=O)Nc1ccc(C)c(-c2ccccn2)c1`
Result block: 5.00 to 6.00

Query block: Bench note: what pIC50 did `Cc1ccc(NC(=O)C23CC(C(F)(F)F)(C2)C3)cc1-c1ccccn1` show?
Result block: 5.00 to 6.00

Query block: Can you share its pIC50? I mean this compound: CC[C@H]1C[C@@H]1C(=O)Nc1ccc(C)c(-c2ccccn2)c1 (single isomer, unassigned) [Example 107]
Result block: < 5.00

Query block: Dear colleague, I am looking for the recorded pIC50 of the following compound: `O=C(Nc1ccc(C2CC2)c(-c2ccc(F)cn2)c1)N1C2CCCC1C2`
Result block: 5.00 to 6.00

Query block: I would be grateful if you could share the reported pIC50 for `Cc1ccc(NC(=O)[C@H]2[C@@H]3CC(F)(F)C[C@@H]32)cc1-c1cccnn1` .
Result block: < 5.00

Query block: What does the data say about its pIC50? Entry: `Cc1ccc(NC(=O)[C@@H]2C[C@@H]2c2ccccc2)cc1-c1cccnn1`
Result block: < 5.00

Query block: Which pIC50 is listed for Cc1ccc(NC(=O)C2CC3CC3CN2c2ccccn2)cc1-c1ncc(F)cn1 (mixture of isomers) ?
Result block: 5.00 to 6.00

Query block: Which pIC50 reading was recorded for the compound Cc1ccc(NC(=O)C2CCC(=O)N2c2ccccn2)cc1-c1ncc(F)cn1 (racemic) ?
Result block: < 5.00
